# target_system: rat NaPi-2b (Rattus norvegicus)
# Construct: expressed in transfected cells; host or cells: Xenopus oocytes injected with cRNA
# Sequence (Q9JJ09 1-695): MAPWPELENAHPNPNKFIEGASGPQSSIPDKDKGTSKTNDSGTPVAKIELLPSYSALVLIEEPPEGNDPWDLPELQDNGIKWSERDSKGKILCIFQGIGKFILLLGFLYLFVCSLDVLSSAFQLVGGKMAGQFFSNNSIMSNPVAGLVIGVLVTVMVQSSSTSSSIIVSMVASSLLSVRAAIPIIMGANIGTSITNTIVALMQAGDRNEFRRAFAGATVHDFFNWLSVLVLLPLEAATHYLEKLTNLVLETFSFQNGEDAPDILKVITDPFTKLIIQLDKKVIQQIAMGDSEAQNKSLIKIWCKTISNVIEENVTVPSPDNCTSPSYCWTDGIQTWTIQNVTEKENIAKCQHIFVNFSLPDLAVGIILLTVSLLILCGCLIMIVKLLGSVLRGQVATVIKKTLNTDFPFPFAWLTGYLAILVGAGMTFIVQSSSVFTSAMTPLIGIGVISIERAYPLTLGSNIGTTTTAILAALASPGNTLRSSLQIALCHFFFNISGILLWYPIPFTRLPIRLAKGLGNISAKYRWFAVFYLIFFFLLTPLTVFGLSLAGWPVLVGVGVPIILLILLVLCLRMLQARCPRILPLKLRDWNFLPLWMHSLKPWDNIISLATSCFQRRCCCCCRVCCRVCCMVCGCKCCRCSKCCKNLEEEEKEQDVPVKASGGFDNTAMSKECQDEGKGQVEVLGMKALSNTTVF
# assay_comment: Sodium-dependent phosphate uptake of Xenopus oocytes which expressed NaPi-2b (32P)
# Assay type: cell-based
# assay_conditions: phosphate uptake, oocytes expressing rat NaPi-2b; 300 μM, determined from inhibition curve
measured_property: inhibition at 300 µM (%)
# value in %; strip the unit string

Input line: Given the entry "CCN(CC)CCN(C)Cc1cccc(C(=O)Nc2c(C)csc2C(=O)N/N=C/c2ccc(C)c(C)c2)c1" , what inhibition at 300 µM was observed with rat NaPi-2b (Rattus norvegicus)?
Output line: 81

Input line: GET /values?readout=inhibition at 300 µM&system=rat NaPi-2b (Rattus norvegicus)&item= COc1ccc(/C=N/NC(=O)c2cccnc2NC(=O)c2cccc(CN(CC(C)O)CC(C)O)c2)cc1 (stereo not shown)
Output line: 52.7

Input line: Hello, I am looking for reported inhibition at 300 µM with rat NaPi-2b (Rattus norvegicus) for "COc1ccc(C(=O)Nc2ccccc2C(=O)N/N=C/c2cccc(C)n2)cc1OC" . Could you help?
Output line: 34.8

Input line: Checklist item: inhibition at 300 µM tested on rat NaPi-2b (Rattus norvegicus), entry "CCN(CC)Cc1cccc(C(=O)Nc2sc(CN3CCCCC3)c(C)c2C(=O)N/N=C/c2ccc(OC)cc2)c1" , value?
Output line: 54.9

Input line: Missing value: inhibition at 300 µM, rat NaPi-2b (Rattus norvegicus), entry "Cc1ccc(/C=N/NC(=O)c2sc(C(C)(C)C)cc2NC(=O)c2cccc(CN3CCN(CCO)CC3)c2)cc1C" . Fill in?
Output line: 30.1

Input line: Can you look up inhibition at 300 µM on rat NaPi-2b (Rattus norvegicus) for "Cc1ccc(/C=N/NC(=O)c2cc(Br)ccc2NC(=O)c2ccc(CNCCCN(C)c3ccccc3)cc2)cc1" ?
Output line: 58.2

Input line: Record lookup: for rat NaPi-2b (Rattus norvegicus), what inhibition at 300 µM belongs to "COc1ccc(/C=N/NC(=O)c2scc(C)c2NC(=O)c2cccc(CN3CCC(N4CCCCC4)CC3)c2)cc1" ?
Output line: 35.7
